SYSTEM_TESTED: Cytochrome P450 3A4 (Homo sapiens) (UniProt P08684)
Sequence (P08684 whole entry, looked up): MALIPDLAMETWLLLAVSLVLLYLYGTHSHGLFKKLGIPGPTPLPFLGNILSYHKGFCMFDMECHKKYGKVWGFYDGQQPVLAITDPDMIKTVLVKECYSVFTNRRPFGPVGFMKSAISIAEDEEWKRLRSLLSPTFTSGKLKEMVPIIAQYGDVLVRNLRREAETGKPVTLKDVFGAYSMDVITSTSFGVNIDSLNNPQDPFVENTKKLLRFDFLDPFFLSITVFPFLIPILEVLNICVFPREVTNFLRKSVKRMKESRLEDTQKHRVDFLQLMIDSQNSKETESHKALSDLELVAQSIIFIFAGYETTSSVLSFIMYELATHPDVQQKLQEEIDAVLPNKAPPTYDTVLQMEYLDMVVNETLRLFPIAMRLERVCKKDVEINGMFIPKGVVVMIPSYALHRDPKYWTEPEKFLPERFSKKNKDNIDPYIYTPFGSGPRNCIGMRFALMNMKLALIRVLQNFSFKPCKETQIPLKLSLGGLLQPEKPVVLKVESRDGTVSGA
ASSAY_OVERVIEW: Cytochrome panel assay with activity outcomes
EXPERIMENTAL_CONDITIONS: recombinant CYP, pro-luciferin dealkylation, luminescence, p450-cyp3a4; series mostly up to 57.1 µM
The campaign covered roughly 16,000 compounds. About 5,100 (32%) were called active. Another 25% or so got no clear call; they are omitted. Calls follow the shape of the dose curve; as a rule, active = well fitted curve in the direction sought with a large enough effect; inconclusive = small, poorly fitted or top-dose-only effect, or effect the other way; inactive = no such curve, though single readings can be large or run the other way. The list shows a part of the results.
One label from this list, please: active, inactive

Worked set:
Hello, I am checking results. What call was entered for Cc1nc2c(O)cccc2c(=O)[nH]1 ?
inactive

Hello, I am checking results. What call was entered for COc1ccc(Cl)cc1NC(=O)CN1C(=O)CSC1=O ?
active

Hello, I am checking results. What call was entered for CCCCC(=O)N/N=C(\C)CC(=O)Nc1cc(Cl)ccc1OC ?
active

Hello, I am checking results. What call was entered for Cc1[nH]n(C(C)(C)C)c(=O)c1Sc1ccc(Cl)cc1 ?
active

Hello, I am checking results. What call was entered for C/C(CC(=O)Nc1cc(Cl)ccc1Cl)=N\NC(N)=S ?
active

Hello, I am checking results. What call was entered for C[C@@H](CN1CCC(Cc2ccccc2)CC1)[C@@H](O)c1ccc(O)cc1 ?
inactive

Hello, I am checking results. What call was entered for O=C(O)C1CCCCC1C(=O)Nc1cc(Cl)ccc1Cl (stereo unspecified) ?
inactive

Hello, I am checking results. What call was entered for Cc1ccc2nc(SCc3nc4c(cnn4-c4ccccc4)c(=O)[nH]3)[nH]c2c1 ?
active

Further cases:
Hello, I am checking results. What call was entered for Cc1[nH]n(C(C)(C)C)c(=O)c1Sc1ccccc1 ?
inactive

Hello, I am checking results. What call was entered for COc1ccc(Cl)cc1NC(=O)NCCCl ?
inactive

Hello, I am checking results. What call was entered for CCOC(=O)c1cc2c(ccn2C)n1CC(=O)N1CCCC(C)C1 (stereo unspecified) ?
active
